# Tested on: K4 kissing-loop RNA reporter;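 further: bound reporter read as fluorescence of individual clusters on recovered sequencing chips by microscopy, with normalized cluster intensities fitted with a binding model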
# assay-info: apparent KD of K4 kissing-loop reporter; higher = weaker reporter binding
# details: Eterna round: R107; input ligand: theophylline 20 uM

{"record-sequence": "CUGCAACAUAACUUCUUCGUCCUAGAAGACUAGGAUAUCAGGAAACUGAGAAGGAGUCUCUGCAGUGAUGUUGCAGCUAGGACGA [[K]'-[F2]'-[F1]'-[F1]-[F2]-[K1]-[K2]-[F]''_Design3]", "apparent KD of K4 kissing-loop reporter [nM]": 197}
{"record-sequence": "AACGUUUUGAGAAGGAGCGCGAUAAGCAGUGAUGUUGCUAAAAUUCUAUUUCAAUUUAAUACGCAGGUAGGUCGCUCAAUACGUA [JR_SSArginiB_Sub020]", "apparent KD of K4 kissing-loop reporter [nM]": 156}
{"record-sequence": "AAGCAGUCUCUUGUAACCAUCGAAGAUGGACGAGGACCGGUACGGCCGCCACUCGGAGUGAUGUUCCGAAGACUGCAAAAUAAAA [MatMod 15 - Jieux - Exclusion - Tryptophan A]", "apparent KD of K4 kissing-loop reporter [nM]": 1280}
{"record-sequence": "AGCGUCCCUACGGCCGCCACUGGGAGUGAUGUUCCCAGGUUAGGCCUGAGGAUACUAUGGAUCGCCAGGACCGGGUAGCGACCAA [Zaarin]", "apparent KD of K4 kissing-loop reporter [nM]": 97.2}
{"record-sequence": "UUUGGAAGCGGUGUUGAUUAGGGAGCGGAAGGAGCGCCGAGGAGGGCAGGUAGGUCGCCGGAAUGUAGUGAUGUUGCAUAGAGGU [ExArgA.Aa]", "apparent KD of K4 kissing-loop reporter [nM]": 526}
{"record-sequence": "UUUGAAAUGUCUGAUACCAGAGAAAAUAUAUGUAGUGAUGUUAUAUACAAAUUUAAUAAGCUCCCUUGGCAGCAGUAUGAAUUUU [AstrosExc-TheB#14]", "apparent KD of K4 kissing-loop reporter [nM]": 748}
{"record-sequence": "UGUCAUUGGUCGGCCGCCACUUCAUGUAGAGUGAUGUUUUGUAGGACGGAUCGAAAGAUCUGUCGAAGGACCGGGACCGAUGACU [FiskerMod 15 - Jieux - Same State - Tryptophan B]", "apparent KD of K4 kissing-loop reporter [nM]": 235}
{"record-sequence": "AACAUUUUCAGAAGGAGCGUGAAUUAUUCAUAAUUAUAUUAUACGAGUGAUGUUCGUAUUUCACAGGUAGGUCGCUGAUAUAGUA [#02 K4 Arginine B Same State]", "apparent KD of K4 kissing-loop reporter [nM]": 121}
{"record-sequence": "GCUAUCUGAGCCCAGUGAUGUUGAGUGCUGAAGGAUAUGCGAUAGAGCAGAAGGUCAAGAACAUUGUUCGAUUAUCAAAACAAGU [theeternabot_exclusion_KL_FMN_A_35]", "apparent KD of K4 kissing-loop reporter [nM]": 356}
{"record-sequence": "CCCUCACGAGUGAUGUUCGUAGGGUACAGUCAGGAUAUCAUGCGGUUGAGAAGGGACAGAGAGGGCGGCCACGGGUUGCUCCUCU [Lariusteza]", "apparent KD of K4 kissing-loop reporter [nM]": 345}
{"record-sequence": "AGGAUCCGUCGACAAAAGUCGACAUAAACCGAGGAUAUGACGAAAGUCAGAAGGUGGUCAUAAGACCAGUGAUGUUGGUGGAUCC [FmnA 14 #SwitchBubble #K4Late]", "apparent KD of K4 kissing-loop reporter [nM]": 318}
